Assay name: chemical genetic growth profiling, strain panel (AID 1159580);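 note: tested at 20 µM; growth read once vehicle control cultures reached saturation at 30 °C; 1 = growth at the plate median or of vehicle wells; lower values mean less growth of the strain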
Study conditions: S. cerevisiae deletion strains, growth OD, locus YNL197C, strain WHI3
Out of some 5,500 compounds screened, about 2,000 (36%) were called active. Inconclusive results (about 18%) are left out. Cut-off read from the data, not from the text of the source: active = normalized growth mostly below about 0.91 (no sharp cut-off); inconclusive = no clear call, values can overlap the other calls; inactive = mostly above about 0.92. Some of the results follow.
In this exercise, the only acceptable responses are active, inactive

INSERT INTO measurements (compound, category_label) VALUES
  ('CCCCCC[C@@H]([C@@H](C)O)n1cnc2c(N)ncnc21', 'inactive');

Problem: Give the logged outcome of this assay for the following compound: `COc1ccc2c(c[n+](C)c3c4cc5c(cc4ccc23)OCO5)c1OC`
Solution: active

---

Assay name: chemical genetic growth profiling, strain panel (AID 1159580);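 note: tested at 20 µM; growth read once vehicle control cultures reached saturation at 30 °C; 1 = growth at the plate median or of vehicle wells; lower values mean less growth of the strain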
Study conditions: S. cerevisiae deletion strains, growth OD, locus YOR316C, strain cot1
Out of some 5,500 compounds screened, about 2,000 (36%) were called active. Not shown: some 18% with an inconclusive outcome. Rule as the data show it: active = normalized growth mostly below about 0.91 (no sharp cut-off); inconclusive = no clear call, values can overlap the other calls; inactive = mostly above about 0.92. This is one part of the list.
In this exercise, the only acceptable responses are 1 (active), 0 (inactive)

Past entries and their recorded results:
INSERT INTO results (compound_structure, category_label) VALUES
  ('COc1c2c(cc3c1OCO3)CC[N+](C)=C2', 0),
  ('NS(=O)(=O)c1cc2c(cc1C(F)(F)F)NCNS2(=O)=O', 0),
  ('C[n+]1cc2c3c(ccc2c2ccc4cc5c(cc4c21)OCO5)OCO3', 1);

Problem: Give the logged outcome of this assay for the following compound: `COc1ccc2cc3[n+](cc2c1OC)CCc1cc2c(cc1-3)OCO2`
Solution: 1

Problem: Give the logged outcome of this assay for the following compound: `O=C1c2c(O)ccc(O)c2C(=O)c2c(NCCNCCO)ccc(NCCNCCO)c21`
Solution: 0

Problem: Give the logged outcome of this assay for the following compound: `COc1cc2cc[n+]3cc4c(OC)c(OC)ccc4cc3c2cc1OC`
Solution: 0
